# reported TGI; entries follow
- System: HT29 colon
- experiment: NCI tumour cell line growth inhibition, 48 h

- molecule: "COc1cccc(NC(=O)CC(=O)N2N=C(N(CCC#N)c3ccc(Cl)cc3)CC2c2ccccc2)c1 (configuration not stated)"
  TGI: "> 100 µM"
- molecule: "Cc1ccccc1OC(C)C(=O)NN1C(=O)CC(=O)N(c2ccc(Cl)cc2)C1=S (configuration not stated)"
  TGI: "> 100 µM"
- molecule: "CC(=O)NNc1nc(C)c(C(=O)NNC(=O)C(=O)Nc2ccccc2C#N)s1"
  TGI: "> 100 µM"
- molecule: "CCC1=CCC23C(=O)C=CC(=O)C2(C1)C(=O)c1cccc(OC)c1C3=O (configuration not stated)"
  TGI: "55.8 µM"
- molecule: "CCN(CC)CCOC(NC(C)=O)(c1ccccc1)c1ccccc1"
  TGI: "> 100 µM"
- molecule: "COc1ccc(Nc2nc3ccc(C(F)(F)F)cc3nc2C(=O)O)cc1OC"
  TGI: "> 100 µM"
- molecule: "COc1nc(NC2OCC(OC(C)=O)C(OC(C)=O)C2OC(C)=O)c(N=CC=Nc2c(NC3OCC(OC(C)=O)C(OC(C)=O)C3OC(C)=O)nc(OC)n(C)c2=O)c(=O)n1C (configuration not stated)"
  TGI: "> 100 µM"
- molecule: "CC(C)C(=O)Nc1nc2nc[nH]c2c(=O)[nH]1"
  TGI: "> 100 µM"
- molecule: "CN(C)c1nc(=NCc2ccncc2)ss1"
  TGI: "38.5 µM"
- molecule: "COc1cc(OCc2ccc3oc(=O)c(-c4ccccc4)nc3c2)cc(OC)c1OC"
  TGI: "> 100 µM"
- molecule: "COC(=O)CCC(NC(=S)N/N=C(\\C)c1nccs1)C(=O)OC (configuration not stated)"
  TGI: "> 100 µM"
- molecule: "C[C@H](Nc1ncnc2nc[nH]c12)c1cc2cccc(Cl)c2c(=O)n1-c1ccccc1"
  TGI: "> 100 µM"
- molecule: "Cc1cc(N(CCC#N)S(=O)(=O)c2ccccc2)ccc1/C=C1N=C(/C=C/c2ccccc2)OC\\1=O"
  TGI: "> 100 µM"
- molecule: "CCN(CC)c1ccc(C(=C2C=CC(=[N+](CC)Cc3cccc(S(=O)(=O)O)c3)C=C2)c2ccc(N(CC)Cc3cccc(S(=O)(=O)O)c3)cc2)cc1"
  TGI: "> 88.9 µM"
- molecule: "C[C@@H](C(=O)Nc1ccc(Cl)cc1)C1CCC(c2ccnc3ccc(F)cc23)CC1 (some centres not stated)"
  TGI: "40.4 µM"
- molecule: "COCOc1ccc(OC)cc1"
  TGI: "> 100 µM"
- molecule: "COc1ccc2c(c1)O/C(=C\\c1cccc(OCC(=O)Nc3nc4c(s3)CCCC4)c1)C2=O"
  TGI: "> 100 µM"

* * *

- Tested on: NCI-H522 lung
- experiment: NCI tumour cell line growth inhibition, 48 h
Each entry below carries its recorded GI50.

- compound: "O=C1OC(=O)C(c2c[nH]c3ccccc23)=C1c1c[nH]c2ccccc12"
  GI50: "> 25 µM"
- compound: "COC1(C(=O)N[C@@H](C)c2ccc(-n3cc(F)cn3)nc2)CCC(c2nc(C)cc(Nc3cc(C)[nH]n3)n2)CC1 (stereo partly specified)"
  GI50: "2.26 µM"
- compound: "CN1CCN(CCc2cccc(C(=O)c3cnn(-c4ccc(F)cc4)c3N)c2)CC1"
  GI50: "> 25 µM"
- compound: "C[C@@H](C(=O)Nc1ccc(Cl)cc1)C1CCC(c2ccnc3ccc(F)cc23)CC1 (stereo partly specified)"
  GI50: "10.7 µM"
- compound: "O=C([O-])c1ccccc1Nc1ccccn1.O=C([O-])c1ccccc1Nc1ccccn1.[Ni+2]"
  GI50: "> 100 µM"
- compound: "Cc1ccc2c(ccc3c[n+]4c5ccccc5ccc4n32)c1"
  GI50: "1.09 µM"

* * *

- Tested on: HOP-62 NSCLC
- experiment: NCI tumour cell line growth inhibition, 48 h

- compound: "C=CCc1c2c(c(OC)c3ccoc13)C(=O)/C(=C/c1ccccc1OC)O2"
  assay.target: "HOP-62 NSCLC"
  GI50: "4.98 µM"
- compound: "COc1ccc(-c2ccc(/C=N/n3c(COc4ccc(Cl)cc4Cl)n[nH]c3=S)o2)c([N+](=O)[O-])c1"
  assay.target: "HOP-62 NSCLC"
  GI50: "19.8 µM"
- compound: "CNC(=O)n1ccc2cc(Oc3ccnc(NC(=O)c4ccc(C5CCN(CCO)CC5)cc4)c3)c(OCCOC)cc21"
  assay.target: "HOP-62 NSCLC"
  GI50: "4.56 µM"

* * *

The following molecules are shown together with reported TGI values.
- System: OVCAR-4 ovarian
- experiment: NCI tumour cell line growth inhibition, 48 h

- molecule: "COc1cc(/C=C/C(=O)O)ccc1C(=O)O/C=C/c1ccccc1"
  TGI: "> 100 µM"
- molecule: "Nc1c2ccccc2nc2c1ccc1ncccc12"
  TGI: "63 µM"
- molecule: "CC(C)=C[C@@H]1C[C@H](n2cc(C)c(=O)[nH]c2=O)ON1CCO"
  TGI: "> 100 µM"
- molecule: "O=C(c1ccc(F)cc1)c1cccc(C(=O)c2ccc(F)cc2)n1"
  TGI: "> 100 µM"
- molecule: "CC(CC(C#N)(c1ccccc1)c1ccccc1)N1CCCCC1 (stereo unspecified)"
  TGI: "> 100 µM"
- molecule: "O=C(c1ccccc1)C1N=NCC1c1ccc([N+](=O)[O-])cc1 (stereo unspecified)"
  TGI: "> 100 µM"
- molecule: "COC(=O)NN(C(=O)OC)c1c(-c2ccccc2)nc(SC)n1N"
  TGI: "> 100 µM"
- molecule: "Cc1occc1C(=S)Nc1ccc(Cl)c(COC(C)(C)C)c1"
  TGI: "33.1 µM"
- molecule: "CCN(CC)CCn1ccc(=O)c2cc3c(=O)ccn(CCN(CC)CC)c3c(C)c21"
  TGI: "9.43 µM"
- molecule: "CCCCCCCCCCCCOC(=S)NCCCC"
  TGI: "99.7 µM"
- molecule: "COc1cc(Cl)cc(-c2nn(C(=O)NCCN3CCOCC3)cc2-c2ccncc2)c1"
  TGI: "> 100 µM"

* * *

Item-by-item account of GI50
- System: TK-10 renal
- experiment: NCI tumour cell line growth inhibition, 48 h

- compound: "C[C@@H](C(=O)Nc1ccc(Cl)cc1)C1CCC(c2ccnc3ccc(F)cc23)CC1 (stereo not given in full)"
  GI50: "6.04 µM"
- compound: "O=C1OC(=O)C(c2c[nH]c3ccccc23)=C1c1c[nH]c2ccccc12"
  GI50: "> 25 µM"
- compound: "CNC(=O)n1ccc2cc(Oc3ccnc(NC(=O)c4ccc(C5CCN(CCO)CC5)cc4)c3)c(OCCOC)cc21"
  GI50: "15.3 µM"
- compound: "N#Cc1cnc2cc(OC[C@H](O)CO)c(NC(=O)CC3CSSC3)cc2c1Nc1ccc(OCc2cccc(F)c2)c(Cl)c1"
  GI50: "0.873 µM"
- compound: "COc1ccc(N2C(C)=C(C#N)C34C(=O)N(c5ccccc5)C(=O)C3=C(O)C=CC24O)cc1 (stereo not given)"
  GI50: "21.5 µM"
- compound: "COC(=O)/C=C/C=C(c1ccccc1)c1ccccc1"
  GI50: "20.3 µM"
- compound: "COC1(C(=O)N[C@@H](C)c2ccc(-n3cc(F)cn3)nc2)CCC(c2nc(C)cc(Nc3cc(C)[nH]n3)n2)CC1 (stereo not given in full)"
  GI50: "1.96 µM"
- compound: "CCN(CC)S(=O)(=O)c1ccc(OC)c(Nc2ncc(-c3ccccc3)o2)c1"
  GI50: "> 17.4 µM"
- compound: "Cc1c(C(=O)/C=C/c2csc3ccccc23)[n+](=O)c2ccccc2n1[O-]"
  GI50: "2.79 µM"
- compound: "Cc1ccncc1.[O]=[Ge].[O]=[Ge].[O]=[Ge].[O]=[Ge].[O]=[Ge].[O]=[Ge][OH].[O]=[Ge][OH]"
  GI50: "> 100 µM"

* * *

- Tested on: IGROV1 ovarian
- experiment: NCI tumour cell line growth inhibition, 48 h

- compound: "CCN1C(=O)N(CC)C2C1NN=c1s/c(=C\\c3cccnc3)c(=O)n12 (stereo not drawn)"
  GI50: "0.843 µM"
- compound: "COc1cccc(/C=C/C(=O)c2cccc(Nc3nc(Nc4ccccc4)nc(Nc4ccccc4)n3)c2)c1"
  GI50: "5.47 µM"
- compound: "N#Cc1cnc2cc(OC[C@H](O)CO)c(NC(=O)CC3CSSC3)cc2c1Nc1ccc(OCc2cccc(F)c2)c(Cl)c1"
  GI50: "0.446 µM"
- compound: "COc1ccc(C(=O)/C=C/c2ccc(/C=C/c3cc(OC)c(OC)c(OC)c3)cc2)cc1"
  GI50: "9.24 µM"
- compound: "CNC(=O)c1cncc(/C=C/c2ccccc2C)c1"
  GI50: "> 25 µM"
- compound: "Nc1cc2cccc[n+]2c2cc(Cl)ccc12"
  GI50: "71.6 µM"
- compound: "CN1CCN(CCc2cccc(C(=O)c3cnn(-c4ccc(F)cc4)c3N)c2)CC1"
  GI50: "> 25 µM"
- compound: "COc1cc(C2c3cc4c(cc3[C@@H](Nc3ccc(C#N)cc3)C3COC(=O)[C@H]23)OCO4)cc(OC)c1O (stereo partly drawn)"
  GI50: "1.76 µM"

// data source = PubChem BioAssay (NCI)
